test system: Vero E6 infected with SARS-CoV-2; assay: inhibition of SARS-CoV-2 cytopathic effect; higher = more antiviral protection, active = above 15; conditions: 8.33 nM; 48 h
Recorded inhibition of SARS-CoV-2 cytopathic effect, one value per entry.
property-measured: inhibition of SARS-CoV-2 cytopathic effect (%)

> print(dat)
                                    compound  numeric.readout
 1  N#CC[C@@H](C1CCCC1)n1cc(-c2ncnc3[nH]ccc23)cn1 [ruxolitinib-(S)]            -0.87
 2  CCCCNc1ncc2c(-c3ccc(CN4CCN(C)CC4)cc3)cn([C@H]3CC[C@H](O)CC3)c2n1             2.77
 3  CO/N=C(\C(=O)N[C@@H]1C(=O)N2C(C(=O)O)=C(COC(N)=O)CS[C@H]12)c1ccco1             1.54
 4   CCCCN(Cc1ccc(C(=O)NO)cc1)C(=O)Nc1ccccc1             0.67
 5  O=C(Cn1c(=O)sc2ccc(Cl)cc21)N1CCN(CCO)CC1 [tiaramide]            -1.84
 6  O=C(Nc1ccccc1C(=O)Nc1ccc(CCO)cc1)c1ccc([N+](=O)[O-])cc1             0.23
 7  NS(=O)(=O)c1cc2c(cc1Cl)N=C(CSCc1ccccc1)NS2(=O)=O [benzthiazide]             0.15
 8  CCC1(C2=NCCN2)Cc2ccccc2O1 (stereo not drawn)            -1.17
 9   CNC[C@H](O)c1ccc(O)c(O)c1 [epinephrine]             3.04
10  O=C(Nc1ccc(-c2ccnc(Nc3ccc(N4CCOCC4)cc3)n2)cc1)C1CCCN1 (stereo not drawn)            -1.43
11             NC(=O)c1cccnc1 [nicotinamide]             1.53
12  O=C(O)c1ccc2cc(-c3ccc(O)c(C45CC6CC(CC(C6)C4)C5)c3)ccc2c1             1.61
13  CCCCN1CCC(CNC(=O)c2c3n(c4ccccc24)CCCO3)CC1             1.75
14     CCC(C)SSc1ncc[nH]1 (stereo not drawn)            -14.1
15           O=C(O)c1cc(-c2ccccc2)nc2ccccc12            -0.04
16  OC(c1cc(C(F)(F)F)nc2c(C(F)(F)F)cccc12)C1CCCCN1 (stereo not drawn)             0.59
17         COc1ccc(NS(=O)(=O)c2ccc(N)cc2)nn1             2.28
18                    CN(C)C(=S)SSC(=S)N(C)C             3.58
19  COc1cc(OC2CCN(C)CC2)ccc1Nc1ncc2c(n1)n(C1CCCC1)c(=O)n2C             2.01
20  N#CC(Cc1ccc(O)cc1)c1ccc(O)cc1 (stereo not drawn)             1.57
21  COc1cc2ncnc(Nc3ccc(Oc4ccccc4)cc3)c2cc1OC             2.88
22  CC(C(=O)O)c1ccc2c(c1)Cc1cccnc1O2 (stereo not drawn)             4.49
23  CC1=C(/C=C/C(C)=C/C=C/C(C)=C/CO)C(C)(C)CCC1             0.39

====

Some molecules, each annotated with its measured inhibition of SARS-CoV-2 cytopathic effect.
test system: Vero E6 infected with SARS-CoV-2; assay: inhibition of SARS-CoV-2 cytopathic effect; higher = more antiviral protection, active = above 15; conditions: 10000 nM; 48 h
property-measured: inhibition of SARS-CoV-2 cytopathic effect (%)

> print(dat)
                                    molecule  unit.abbrev  numeric.readout
 1      N#Cc1ccc(N(Cc2ccc(Br)cc2)n2cnnc2)cc1            %            -2.52
 2  CCc1c2c(nc3ccc(OC(=O)N4CCC(N5CCCCC5)CC4)cc13)-c1cc3c(c(=O)n1C2)COC(=O)[C@]3(O)CC [irinotecan]            %            -0.23
 3  COc1nccnc1NS(=O)(=O)c1ccc(N)cc1 [sulfametopyrazine]            %            -0.68
 4  CC(=O)[C@H]1CC[C@H]2[C@@H]3CC[C@H]4C[C@](C)(O)CC[C@]4(C)[C@H]3CC[C@]12C [ganaxolone]            %             0.84
 5    Cc1cc(Cl)ccc1OCCCC(=O)NO [droxinostat]            %            -3.27
 6  CCOC1O[C@H]([C@@H](COCc2ccccc2)OCc2ccccc2)[C@H](OCc2ccccc2)[C@H]1O (some centres not stated) [tribenoside]            %              1.9
 7  COc1c(C)c(C(=O)c2ccc(N)c(C(=O)O)c2)n2ccccc12            %            -1.34
 8  CN(C)Cc1c(C(=O)NCCOc2ccc(C(=O)NO)cc2)oc2ccccc12            %            -26.9
 9  c1cc(CN2CCCCC2)cc(OCCCNc2nc3ccccc3s2)c1 [zolantidine]            %              4.6
10  CN(C)CCCn1cc(C2=C(c3c[nH]c4ccccc34)C(=O)NC2=O)c2ccccc21            %             13.2
11  Cc1cc2nc3c(=O)[nH]c(=O)nc-3n(C[C@H](O)[C@H](O)[C@H](O)CO)c2cc1C [riboflavin]            %             0.32
12  C[C@H](CS)C(=O)N1CCC[C@H]1C(=O)O [captopril]            %            -0.97
13  CN1CCCCC1CCN1c2ccccc2Sc2ccc([S+](C)[O-])cc21 (configuration not stated) [mesoridazine]            %            -3.76
14  CC(Cc1cccc(C(F)(F)F)c1)NCCOC(=O)c1ccccc1 (configuration not stated) [benfluorex]            %             0.26
15    CCCN[C@H]1CCc2nc(N)sc2C1 [pramipexole]            %            -1.54
16           Cc1ncc(CO)c(C=O)c1O [pyridoxal]            %             1.19
17  COCCOC(=O)C1=C(C)NC(C)=C(C(=O)OC/C=C/c2ccccc2)C1c1cccc([N+](=O)[O-])c1 (configuration not stated) [cilnidipine]            %              7.9

====

test system: Vero E6 infected with SARS-CoV-2; experiment: inhibition of SARS-CoV-2 cytopathic effect; higher = more antiviral protection, active = above 15; conditions: 8.33 nM; 48 h
property-measured: inhibition of SARS-CoV-2 cytopathic effect (%)

> print(dat)
                                    compound  unit.abbrev  numeric.readout
 1        O=C(c1cccc(Br)c1)N1CCC(N2CCCC2)CC1            %             1.79
 2  Nc1nc(O)c2ncn(CCC(CO)CO)c2n1 [penciclovir]            %            -0.01
 3  CC(=O)Nc1cccc(Nc2ncnc(N3CCC(OCc4ccc(OC(F)(F)F)cc4)CC3)n2)c1C            %            -3.45
 4  O=S(=O)(NCC1CC1)c1ccc(Nc2nccc(N3CCCc4cc(O)ccc43)n2)cc1 [pyrintegrin]            %             5.45
 5  CC(Oc1c(Cl)cccc1Cl)C1=NCCN1 (stereo not given) [lofexidine]            %             3.14
 6      CN1CCN(C(=O)c2cc3cc(Cl)ccc3[nH]2)CC1            %             0.59
 7  O=C(Nc1c(-c2cccs2)nc2ccccn12)c1ccc(Cl)cc1            %            -0.43
 8  N=C(N)Nc1ccc(C(=O)Oc2ccc3cc(C(=N)N)ccc3c2)cc1 [nafamostat]            %             4.06
 9  CC(C)C(=O)Oc1ccc(CO)cc1[C@H](CCN(C(C)C)C(C)C)c1ccccc1 [fesoterodine]            %            -0.18
10  CC(C)c1c(NC(=O)Nc2ccc(Cl)cc2)c(=O)n(-c2ccccc2)n1C            %             0.39
11  Nc1c(S(=O)(=O)O)cc(Nc2cccc3ccccc23)c2c1C(=O)c1ccccc1C2=O            %            -0.72
12  COc1cc(NS(=O)(=O)c2ccc(N)cc2)ncn1 [sulfamonomethoxine]            %             1.44
13  CC(C)CCC[C@@H](C)[C@H]1CC[C@H]2[C@@H]3CC=C4C[C@@H](O)CC[C@]4(C)[C@H]3CC[C@]12C [cholesterol]            %             1.96
14               CN1CCN(c2nc3ccccc3nc2Cl)CC1            %            -0.96
15  COc1cc2nccc(Oc3ccc(NC(=O)Nc4ccc(F)cc4F)c(F)c3)c2cc1OC            %             1.76
16  Cc1ccc(NC(=O)c2ccc(CN3CCN(C)CC3)cc2)cc1Nc1nc(-c2cccnc2)cs1 [masitinib]            %             0.48
17  C=C1CC[C@H](O)C/C1=C/C=C1\CCC[C@]2(C)[C@@H]([C@H](C)/C=C/[C@H](C)C(C)C)CC[C@@H]12 [ergocalciferol]            %             0.86
18  FC(F)(F)C(F)(F)C(F)(F)N(C(F)(F)C(F)(F)C(F)(F)F)C(F)(F)C(F)(F)C(F)(F)F [perfluamine]            %            -1.58
19  Cn1cc(-c2ccc3nnc(Sc4ccc5ncccc5c4)n3n2)cn1            %            -0.33
20  CCO[C@@H](Cc1ccc(OCCn2c(C)ccc2-c2ccc(SC)cc2)cc1)C(=O)O [saroglitazar]            %            -0.85
